# SYSTEM NAME: human PAC1 (Homo sapiens, UniProt P41586)
# Sequence (P41586 21-468): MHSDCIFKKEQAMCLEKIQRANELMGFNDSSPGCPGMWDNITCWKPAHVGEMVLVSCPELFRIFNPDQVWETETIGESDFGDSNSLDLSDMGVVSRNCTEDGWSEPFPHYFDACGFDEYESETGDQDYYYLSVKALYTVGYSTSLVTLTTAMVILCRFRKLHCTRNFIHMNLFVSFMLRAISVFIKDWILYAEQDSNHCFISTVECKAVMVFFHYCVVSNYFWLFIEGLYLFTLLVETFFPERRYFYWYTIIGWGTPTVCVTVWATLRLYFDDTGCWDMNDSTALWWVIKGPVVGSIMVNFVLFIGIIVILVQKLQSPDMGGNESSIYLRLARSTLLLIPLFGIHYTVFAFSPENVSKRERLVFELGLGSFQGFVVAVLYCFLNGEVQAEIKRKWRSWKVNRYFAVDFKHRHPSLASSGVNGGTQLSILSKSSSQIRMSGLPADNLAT
# EXPERIMENT: DiscoveRx cAMP in vitro potency, CHO-PO cells transiently transfected with human PAC1 receptor
# Assay type: cell-based
# Design: expressed in transfected cells; host or cells: CHO-PO, transient (Lipofectamine)
# ASSAY SETUP: cAMP generation; mean of two independent runs; read-out: Human PAC1 Receptor: DiscoveRx EC50
Where no end group is shown, it is not given here. [ ]: non-standard residue; d: D form. hArg = N=C(N)NCCCC[C@H](N)C(=O)O
RESULT TYPE: EC50

H-HSDLVFTDNYTRLRKQVAAKKYLQSIKNKRYGGPSSGAPPPS [Agonist P55]    > 1000 nM
H-HSDAVTTDNYTRLRKQVAAKKYLQSIKNKRYGGPSSGAPPPS [Agonist P65]    0.7 nM
HSDTVFTDNYTRLRKQVAAKKYLQSIKNKRYGGPSSGAPPPS [Agonist P54]    > 1000 nM
HSDYVFTDNYTRLRKQVAAKKYLQSIKNKRYGGPSSGAPPPS [Agonist P51]    > 1000 nM
HSDAVFTDNYTRLRKQVAAKKYLQSIKN[hArg]RYGGPSSGAPPPS [Agonist P24]    > 100 nM
Ac-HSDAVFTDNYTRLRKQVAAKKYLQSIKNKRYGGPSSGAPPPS [Agonist P33]    111 nM
HSDFVFTDNYTRLRKQVAAKKYLQSIKNKRYGGPSSGAPPPS [Agonist P52]    > 1000 nM
HLDAVFTDNYTRLRKQVAAKKYLQSIKNKRYGGPSSGAPPPS [Agonist P46]    > 1000 nM
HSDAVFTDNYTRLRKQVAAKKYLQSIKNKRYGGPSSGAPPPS [Agonist P6]    > 40 nM
HSDAWFTDNYTRLRKQVAAKKYLQSIKNKRYGGPSSGAPPPS [Agonist P69]    104 nM
H-HTDAVFTDNYTRLRKQVAAKKYLQSIKNKRYGGPSSGAPPPS [Agonist P45]    315 nM

----------
# SYSTEM NAME: rat VPAC2 receptor (Rattus norvegicus, UniProt P35000)
# Sequence (P35000 23-437): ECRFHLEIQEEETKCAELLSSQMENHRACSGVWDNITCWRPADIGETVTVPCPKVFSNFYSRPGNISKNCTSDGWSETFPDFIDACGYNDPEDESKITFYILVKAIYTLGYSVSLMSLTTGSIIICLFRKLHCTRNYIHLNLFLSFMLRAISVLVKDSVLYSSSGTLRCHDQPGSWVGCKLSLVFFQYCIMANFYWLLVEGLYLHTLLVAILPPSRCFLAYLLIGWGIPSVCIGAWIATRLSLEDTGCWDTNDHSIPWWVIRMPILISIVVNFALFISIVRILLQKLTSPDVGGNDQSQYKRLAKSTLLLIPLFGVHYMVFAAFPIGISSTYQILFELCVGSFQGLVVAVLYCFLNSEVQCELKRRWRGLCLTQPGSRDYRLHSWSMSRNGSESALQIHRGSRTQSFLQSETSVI
# EXPERIMENT: DiscoveRx in vitro potency, CHO-PO cells transiently transfected with rat VPAC 2 receptor DNA
# Type: cell-based
# Set-up: expressed in transfected cells; host or cells: CHO-PO, transient
pEC50: −log10 of the molar value. Where no end group is shown, it is not given here. [ ]: non-standard residue; d: D form. The star is where a group is joined. Hexanoyl = CCCCCC(=O)*; Aib = CC(C)(N)C(=O)O
RESULT TYPE: pEC50

Hexanoyl-HSDAVFTDNYTR[Aib]R[Aib]QVAA[Aib]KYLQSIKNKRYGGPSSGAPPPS [Agonist P346]    10.22
Hexanoyl-HSDAVFTDQYTRLR[Aib]QVAA[Aib]KYLQSIKQKRYGGPSSGAPPPS [Agonist P315]    10.40
Hexanoyl-HSDAVFTDNYTRLR[Aib]QKAA[Aib]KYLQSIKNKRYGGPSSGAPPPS [Agonist P323]    10.15
Hexanoyl-HSDAVFTDNYTRLR[Aib]QIAA[Aib]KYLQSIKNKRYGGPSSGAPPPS [Agonist P322]    10.40

Values from patent US20080026996A1
